Recorded values, source patent US20260139048A1.

# SYSTEM_TESTED: T1, His-tagged cynomolgus TIGIT (cynomolgus, UniProt A0A7N9I9V4 89-209)
# T1 construct: SPR analyte; also called cynomolgus TIGIT protein; not shown: His tag
# ASSAY_NAME: SPR (Biacore T200), antibody captured, His-tagged TIGIT analyte
OUTCOME_MEASURE: koff (s⁻¹)
Field: numeric (s⁻¹). Do not append units.

| BINDER | UNIT | VAL |
| --- | --- | --- |
| huTIGIT-3-1 (antibody, human IgG1, kappa, V domains shown, Humanized IgG; also called 3VH3.M4 + 3VL4.M6) VH: EVQLVESGGGLVQPGGSLRLSCAASGFTFSSYGMSWVRQAPGKGLELVATIKSSGGSTNLADSVKGRFTISRDNSKNTLYLQMNSLRAEDTAVYYCVRGYFDYWGQGTTVTVSS VL: DIQMTQSPSSLSASVGDRVTITCRASQDIKTALAWYQQKPGKSPKLLIYWASTRQSGVPSRFSGSGSGTDFTLTISSLQPEDVATYYCQQYYSTPYTFGGGTKVEIKR | s⁻¹ | 0.0022 |

Asked: Would you kindly share the measured koff for huTIGIT-6-3 (antibody, human IgG1, kappa, V domains shown, Humanized IgG; also called 6VH6.M6 + 6VL1.M1) VH: QVQLVQSGAEVKKPGASVKVSCKASGYTFTENAMHWVRQAPGQRLEWIGGINPNQGGTSYSQKFQGRATLTVDTSASTAYMELSSLRSEDTAVYYCTRSSYYRYDLDYWGQGTTVTVSS VL: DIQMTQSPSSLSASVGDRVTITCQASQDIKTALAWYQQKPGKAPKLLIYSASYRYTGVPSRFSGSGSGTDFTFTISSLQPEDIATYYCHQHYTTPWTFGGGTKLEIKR ?
Given back: 0.0078
